All values here come from patent US8080657B2.

- Test system: Wnt signaling
- measurementDescription: TopFlash reporter gene bioassay in SW480 cells
- Type: cell-based
- conditionsUsed: Homo sapiens, SW480, TopFlash reporter gene assay, inhibition of Wnt signaling; read-out: RGA, IC50 (μM) TopF
Measured IC50 values are reported for all entries that follow.
Write down the numeric answer in µM and omit the unit.

Previously resolved entries follow.
compound: C=CCN1CC(=O)N2[C@@H](Cc3ccc(O)cc3)C(=O)N(Cc3cccnc3C3CC3)C[C@@H]2N1C(=O)NCc1ccccc1 [compound 108]
readoutUnits: µM
quantitativeResult: 1.31
//
compound: C=CCN1CC(=O)N2[C@@H](Cc3ccc(O)cc3)C(=O)N(Cc3cccc(NC(N)=O)c3)C[C@@H]2N1C(=O)NCc1ccccc1 [compound 225]
readoutUnits: µM
quantitativeResult: 4.3

Let us examine a further case.
For this compound ( C=CCN1CC(=O)N2[C@@H](Cc3ccc(O)cc3)C(=O)N(Cc3ccc(C(C)(C)C)cc3)C[C@@H]2N1C(=O)NCc1ccccc1 [compound 236] ), measured IC50 is 41.7

====

- System: Wnt signaling
- measurementDescription: TopFlash reporter gene bioassay in SW480 cells
- Format: cell-based
- conditionsUsed: Homo sapiens, SW480, TopFlash reporter gene assay, inhibition of Wnt signaling; read-out: RGA, IC50 (μM) TopF
Mark each entry satisfied if its IC50 sits below 7 µM, and not satisfied for all others.

lineNotation: C=CCN1CC(=O)N2[C@@H](Cc3ccc(O)cc3)C(=O)N(Cc3ccccc3[N+](=O)[O-])C[C@@H]2N1C(=O)NCc1ccccc1
labelValue: satisfied

lineNotation: C=CCN1CC(=O)N2[C@@H](Cc3ccc(O)cc3C)C(=O)N(Cc3ccc(F)cc3F)C[C@@H]2N1C(=O)NCc1ccccc1
labelValue: not satisfied

lineNotation: C=CCN1CC(=O)N2[C@@H](Cc3ccc(O)cc3)C(=O)N(Cc3cccnc3Br)C[C@@H]2N1C(=O)NCc1ccccc1
labelValue: satisfied

lineNotation: C=CCN1CC(=O)N2[C@@H](Cc3ccc(O)cc3)C(=O)N(Cc3cccc(C(N)=O)n3)C[C@@H]2N1C(=O)NCc1ccccc1
labelValue: satisfied

Proceed to the following item.
input: Strictly below 7 µM: is that where IC50 of C=CCN1CC(=O)N2[C@@H](Cc3ccc(O)cc3)C(=O)N(Cc3cn(-c4cccc(F)c4)c4ccccc34)C[C@@H]2N1C(=O)NCc1ccccc1 sits?
output: not satisfied

====

- System: Wnt signaling
- measurementDescription: TopFlash reporter gene bioassay in SW480 cells
- Type: cell-based
- conditionsUsed: Homo sapiens, SW480, TopFlash reporter gene assay, inhibition of Wnt signaling; read-out: RGA, IC50 (μM) TopF
Overview of reported IC50 across a group of molecules:
Please respond with the number in µM and leave the unit unwritten.

Worked examples follow.
molecule: C=CCN1CC(=O)N2[C@@H](Cc3ccc(O)cc3)C(=O)N(Cc3cccc(C(=O)NN)c3)C[C@@H]2N1C(=O)NCc1ccccc1 [compound 160]
IC50 / µM: 14.2

molecule: C=CCN1CC(=O)N2[C@@H](Cc3ccc(O)cc3)C(=O)N(Cc3ccc(F)c4scnc34)C[C@@H]2N1C(=O)NCCc1cccs1 [compound 104]
IC50 / µM: 1.27

molecule: C#Cc1ccc(CNC(=O)N2[C@H]3CN(Cc4cccc(OC)c4OC)C(=O)[C@H](Cc4ccc(O)cc4)N3C(=O)CN2CC=C)cc1 [compound 184]
IC50 / µM: 2.56

molecule: C=CCN1CC(=O)N2[C@@H](Cc3ccc(O)cc3)C(=O)N(Cc3csc4ccc(N(Cc5ccccc5)Cc5ccccc5)cc34)C[C@@H]2N1C(=O)NCc1ccccc1 [compound 200]
IC50 / µM: 25.9

molecule: C=CCCNC(=O)c1cccc(CN2C[C@H]3N(C(=O)CN(CC=C)N3C(=O)NCc3ccccc3)[C@@H](Cc3ccc(O)cc3)C2=O)c1 [compound 76]
IC50 / µM: 0.94

molecule: C=CCN1CC(=O)N2[C@@H](Cc3ccc(OS(=O)(=O)NC(=O)OCCN(C)C)cc3)C(=O)N(Cc3cccc4c(C(=O)C5CC5)c[nH]c34)C[C@@H]2N1C(=O)NCc1ccccc1 [compound 220]
IC50 / µM: 33.1

molecule: C=CCN1CC(=O)N2[C@@H](Cc3ccc(O)cc3)C(=O)N(Cc3cccc(-c4ccccc4)n3)C[C@@H]2N1C(=O)NCc1ccccc1 [compound 186]
IC50 / µM: 2.66

molecule: C=CCN1CC(=O)N2[C@@H](Cc3ccc(O)cc3)C(=O)N(Cc3csc4ccc(Cl)cc34)C[C@@H]2N1C(=O)NCc1ccccc1 [compound 43]
IC50 / µM: 0.66

molecule: C=CCN1CC(=O)N2[C@@H](Cc3ccc(O)cc3)C(=O)N(Cc3cccc4c3ncn4C(=O)CN)C[C@@H]2N1C(=O)NCc1ccccc1 [compound 37]
IC50 / µM: 0.6

molecule: C=CCN1CC(=O)N2[C@@H](Cc3ccc(O)cc3)C(=O)N(Cc3cc(C(C)(C)C)cc(C(C)(C)C)c3OC)C[C@@H]2N1C(=O)NCc1ccccc1 [compound 150]
IC50 / µM: 10.2

The recorded IC50 with Wnt signaling for C=CCN1CC(=O)N2[C@@H](Cc3ccc(O)cc3)C(=O)N(Cc3cccc(OC)c3OS(=O)(=O)c3ccc(Cl)cc3)C[C@@H]2N1C(=O)NCc1ccccc1 [compound 105] was 1.27

The observed IC50 for C=CCN1CC(=O)N2[C@@H](Cc3ccc(O)cc3)C(=O)N(Cc3cccc(-c4cccnc4OC)c3)C[C@@H]2N1C(=O)NCc1ccccc1 [compound 98] when tested with Wnt signaling stands at 1.17

====

- testSystem: cDNA-expressed human hepatic CYP3A4 (Homo sapiens, UniProt P08684)
- Construct: purchased BD Gentest 456202
- Sequence (P08684 whole entry): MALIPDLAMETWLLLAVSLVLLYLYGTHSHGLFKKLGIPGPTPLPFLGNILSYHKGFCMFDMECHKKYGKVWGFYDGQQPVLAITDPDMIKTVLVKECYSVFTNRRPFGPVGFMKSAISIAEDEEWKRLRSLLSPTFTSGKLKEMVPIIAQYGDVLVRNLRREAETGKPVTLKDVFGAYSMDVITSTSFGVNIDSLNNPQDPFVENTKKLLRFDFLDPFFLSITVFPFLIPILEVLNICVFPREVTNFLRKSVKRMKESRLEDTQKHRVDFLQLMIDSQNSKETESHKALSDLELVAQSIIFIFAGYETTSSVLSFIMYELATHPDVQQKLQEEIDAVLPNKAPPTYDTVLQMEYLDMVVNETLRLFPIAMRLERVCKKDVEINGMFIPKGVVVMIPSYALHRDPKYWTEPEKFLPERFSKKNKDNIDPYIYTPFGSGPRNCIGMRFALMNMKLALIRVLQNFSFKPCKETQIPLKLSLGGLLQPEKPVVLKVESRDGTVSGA
- measurementDescription: P450 CYP3A4 inhibitory activity screening (BFC substrate, fluorescence)
- Type: biochemical
- conditionsUsed: P450 CYP3A4 inhibitory activity screening, fluorescent assay; read-out: CYP3A4 inhibition, IC50 (μM) fluorescent assay
reportedProperty: IC50 (µM)
Your answer is read as µM, so omit the unit and give the number.

Recorded IC50, per entry:
compound: C=CCN1CC(=O)N2[C@@H](Cc3ccc(O)cc3)C(=O)N(Cc3cccc(C(=O)NC)c3)C[C@@H]2N1C(=O)NCc1ccccc1 [compound 13]
reportedProperty: IC50
quantitativeResult: 8
--
compound: C=CCN1CC(=O)N2[C@@H](Cc3ccc(O)cc3)C(=O)N(Cc3cccc(C(=O)OC)c3)C[C@@H]2N1C(=O)NCc1ccccc1 [compound 11]
reportedProperty: IC50
quantitativeResult: 7.58
--
compound: C=CCN1CC(=O)N2[C@@H](Cc3ccc(O)cc3)C(=O)N(Cc3cccc(C(=O)NC)n3)C[C@@H]2N1C(=O)NCc1ccccc1 [compound 25]
reportedProperty: IC50
quantitativeResult: 13.1

Entry C=CCN1CC(=O)N2[C@@H](Cc3ccc(O)cc3)C(=O)N(Cc3cccc(C(C)=O)c3)C[C@@H]2N1C(=O)NCc1ccccc1 [compound 15] , IC50 reported as 8.79

// sample C=CCN1CC(=O)N2[C@@H](Cc3ccc(O)cc3)C(=O)N(Cc3cccc(C(=O)NCCOC)c3)C[C@@H]2N1C(=O)NCc1ccccc1 [compound 38] , its IC50 was 34.6

Please fill in: IC50 reported for C=CCN1CC(=O)N2[C@@H](Cc3ccc(O)cc3)C(=O)N(Cc3cccc(C(=O)N4CCOCC4)c3)C[C@@H]2N1C(=O)NCc1ccccc1 [compound 20] = 10.1

Sure, the documented IC50 for C=CCN1CC(=O)N2[C@@H](Cc3ccc(O)cc3)C(=O)N(Cc3cccnc3Br)C[C@@H]2N1C(=O)NCc1ccccc1 [compound 3] is 5.33

Lookup result for C=CCN1CC(=O)N2[C@@H](Cc3ccc(O)cc3)C(=O)N(Cc3cccc(C(=O)N(C)C)c3)C[C@@H]2N1C(=O)NCc1ccccc1 [compound 22] ; measured IC50: 11.6

====

- Test system: Wnt signaling
- measurementDescription: TopFlash reporter gene bioassay in SW480 cells
- Format: cell-based
- conditionsUsed: Homo sapiens, SW480, TopFlash reporter gene assay, inhibition of Wnt signaling; read-out: RGA, IC50 (μM) TopF
# IC50 per record follows
The reply should contain only the number, in µM.

compound: C=CCN1CC(=O)N2[C@@H](CC3=CC(=O)NC3=O)C(=O)N(Cc3cccc4scnc34)C[C@@H]2N1C(=O)NCc1ccccc1 [compound 192]
testSystem: Wnt signaling
IC50 [µM]: 2.85
//
compound: C=CCN1CC(=O)N2[C@@H](Cc3ccc(O)cc3)C(=O)N(Cc3cccc4ccn(-c5ccccn5)c34)C[C@@H]2N1C(=O)NCc1ccccc1 [compound 187]
testSystem: Wnt signaling
IC50 [µM]: 2.67
//
compound: C=CCN1CC(=O)N2[C@@H](Cc3ccc(O)cc3F)C(=O)N(Cc3ccc(F)cc3F)C[C@@H]2N1C(=O)NCc1ccccc1 [compound 74]
testSystem: Wnt signaling
IC50 [µM]: 0.91
//
compound: C=CCN1CC(=O)N2[C@@H](Cc3ccc(O)cc3)C(=O)N(Cc3cccc(-c4ncc[nH]4)c3)C[C@@H]2N1C(=O)NCc1ccccc1 [compound 209]
testSystem: Wnt signaling
IC50 [µM]: 3.3
//
compound: C=CCN1CC(=O)N2[C@@H](Cc3ccc(O)cc3)C(=O)N(Cc3cccc4c3OC(F)(F)O4)C[C@@H]2N1C(=O)NCc1ccccc1 [compound 124]
testSystem: Wnt signaling
IC50 [µM]: 1.56

Now let's try a different one.
C=CCN1CC(=O)N2[C@@H](Cc3ccc(O)c(Cl)c3)C(=O)N(Cc3cccc4scnc34)C[C@@H]2N1C(=O)NCc1ccccc1 [compound 234] yielded IC50 of 40.2
